molecular target: αvβ1 (Homo sapiens, UniProt P05556+P06756); test: Solid Phase Integrin αvβ1 Assay
Sequence (P06756 31-992 limits assumed): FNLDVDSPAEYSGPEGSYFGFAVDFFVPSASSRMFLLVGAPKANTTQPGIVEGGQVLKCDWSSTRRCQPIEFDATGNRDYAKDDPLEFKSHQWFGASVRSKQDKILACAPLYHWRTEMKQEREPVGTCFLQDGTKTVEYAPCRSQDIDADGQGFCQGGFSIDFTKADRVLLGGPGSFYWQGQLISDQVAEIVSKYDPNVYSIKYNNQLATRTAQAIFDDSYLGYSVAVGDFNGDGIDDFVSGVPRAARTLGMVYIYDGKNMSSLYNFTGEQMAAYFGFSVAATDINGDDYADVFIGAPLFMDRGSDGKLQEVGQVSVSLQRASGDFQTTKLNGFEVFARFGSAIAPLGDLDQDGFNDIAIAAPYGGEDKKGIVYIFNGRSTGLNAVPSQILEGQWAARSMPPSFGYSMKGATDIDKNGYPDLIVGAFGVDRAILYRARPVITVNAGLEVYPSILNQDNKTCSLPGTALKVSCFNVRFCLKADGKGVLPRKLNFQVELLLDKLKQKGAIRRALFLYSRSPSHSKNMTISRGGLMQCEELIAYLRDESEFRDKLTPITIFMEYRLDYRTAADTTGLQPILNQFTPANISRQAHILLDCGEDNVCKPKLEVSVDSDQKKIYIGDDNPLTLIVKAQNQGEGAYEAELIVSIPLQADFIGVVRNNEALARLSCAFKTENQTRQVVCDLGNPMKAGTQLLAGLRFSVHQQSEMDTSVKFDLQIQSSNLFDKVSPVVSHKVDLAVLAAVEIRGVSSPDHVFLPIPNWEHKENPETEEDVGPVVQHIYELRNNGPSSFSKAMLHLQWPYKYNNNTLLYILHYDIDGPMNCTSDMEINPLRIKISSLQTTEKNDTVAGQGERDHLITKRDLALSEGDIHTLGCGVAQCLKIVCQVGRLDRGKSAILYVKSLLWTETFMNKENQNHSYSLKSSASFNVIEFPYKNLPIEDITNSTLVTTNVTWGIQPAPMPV
Sequence (P05556 21-728 limits assumed): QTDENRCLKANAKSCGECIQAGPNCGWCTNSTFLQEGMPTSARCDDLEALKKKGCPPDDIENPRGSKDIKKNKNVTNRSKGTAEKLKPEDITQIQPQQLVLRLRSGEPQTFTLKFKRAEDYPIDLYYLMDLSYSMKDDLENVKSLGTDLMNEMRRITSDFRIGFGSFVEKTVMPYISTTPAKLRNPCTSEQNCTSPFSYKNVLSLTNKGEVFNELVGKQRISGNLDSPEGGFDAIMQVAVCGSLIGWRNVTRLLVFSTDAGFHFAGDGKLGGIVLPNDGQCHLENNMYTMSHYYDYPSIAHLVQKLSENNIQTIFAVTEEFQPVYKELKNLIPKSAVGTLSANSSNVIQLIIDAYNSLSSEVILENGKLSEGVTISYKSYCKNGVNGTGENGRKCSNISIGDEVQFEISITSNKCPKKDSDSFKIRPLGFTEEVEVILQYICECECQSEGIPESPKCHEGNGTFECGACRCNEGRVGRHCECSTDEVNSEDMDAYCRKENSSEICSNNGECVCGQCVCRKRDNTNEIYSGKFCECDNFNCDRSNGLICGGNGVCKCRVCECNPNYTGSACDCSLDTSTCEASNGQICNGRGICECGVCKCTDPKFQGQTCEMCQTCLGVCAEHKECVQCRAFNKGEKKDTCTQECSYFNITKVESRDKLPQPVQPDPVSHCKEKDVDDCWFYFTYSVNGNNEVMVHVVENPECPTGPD
Recorded measurements of IC50, one per entry

Lab entry: αvβ1 (Homo sapiens, UniProt P05556+P06756) assay, compound `O=C(NC[C@@H](Nc1cncc(-c2ccccc2)c1)C(=O)O)[C@@H]1CCCN(CCCc2ccc3c(n2)NCCC3)C1` , IC50 = < 0.1 µM

Lab entry: αvβ1 (Homo sapiens, UniProt P05556+P06756) assay, compound `O=C(O)C[C@H](CO[C@@H]1CCCN(CCc2ccc3c(n2)NCCC3)C1)c1ccccc1` , IC50 = > 1 µM

Lab entry: αvβ1 (Homo sapiens, UniProt P05556+P06756) assay, compound `O=C(NC[C@@H](C(=O)O)c1cccc(Br)c1)[C@@H]1CCCN(CCCc2ccc3c(n2)NCCC3)C1` , IC50 = < 0.1 µM

Lab entry: αvβ1 (Homo sapiens, UniProt P05556+P06756) assay, compound `O=C(O)C[C@H](O[C@@H]1CCCN(CCCc2ccc3c(n2)NCCC3)C1)c1ccccc1` , IC50 = > 1 µM

====

molecular target: αvβ1 (Homo sapiens, UniProt P05556+P06756); experiment: Solid Phase Integrin αvβ1 Assay
metric_name: IC50

Lab entry: αvβ1 (Homo sapiens, UniProt P05556+P06756) assay, compound `O=C(O)[C@@H](CCO[C@@H]1CCCN(CCCc2ccc3c(n2)NCCC3)C1)Nc1ncnc2sccc12` , IC50 = < 100 nM

====

Recorded measurements of pIC50, one per entry
target: αvβ6 (Homo sapiens, UniProt P06756+P18564); assay: Solid Phase Integrin αvβ6 Assay
Sequence (P06756 31-992 limits assumed): as the sequence (P06756 31-992 limits assumed) above
Sequence (P18564 22-707 limits assumed): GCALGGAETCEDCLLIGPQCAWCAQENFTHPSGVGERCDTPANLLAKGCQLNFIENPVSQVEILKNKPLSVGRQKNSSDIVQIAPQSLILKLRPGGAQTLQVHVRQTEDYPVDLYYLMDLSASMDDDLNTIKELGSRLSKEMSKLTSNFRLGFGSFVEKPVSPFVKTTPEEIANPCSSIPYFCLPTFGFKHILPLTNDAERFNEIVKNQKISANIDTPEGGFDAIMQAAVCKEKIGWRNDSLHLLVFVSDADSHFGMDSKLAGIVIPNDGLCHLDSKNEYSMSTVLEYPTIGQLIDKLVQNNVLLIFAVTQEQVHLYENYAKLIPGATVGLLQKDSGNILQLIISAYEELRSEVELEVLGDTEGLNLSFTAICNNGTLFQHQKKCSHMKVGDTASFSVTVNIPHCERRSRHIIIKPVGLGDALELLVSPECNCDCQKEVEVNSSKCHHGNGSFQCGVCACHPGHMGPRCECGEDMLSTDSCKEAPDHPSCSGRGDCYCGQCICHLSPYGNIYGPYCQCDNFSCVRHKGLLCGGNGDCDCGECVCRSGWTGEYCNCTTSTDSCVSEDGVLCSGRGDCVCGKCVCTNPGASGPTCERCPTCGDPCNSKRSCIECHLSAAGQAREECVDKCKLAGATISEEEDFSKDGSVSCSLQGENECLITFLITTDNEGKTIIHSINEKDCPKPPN
pIC50: −log10 of the molar value.

molecule | metric_name | recorded_result
O=C(O)[C@H](CCO[C@@H]1CCCN(CCCc2ccc3c(n2)NCCC3)C1)c1cccc(-c2ccccc2)c1 | pIC50 | < 6.00

Proceed to the following item.
Documented pIC50 of `O=C(NC[C@@H](C(=O)O)c1cccc(-c2ccccc2C(F)(F)F)c1)[C@@H]1CCCN(CCCc2ccc3c(n2)NCCC3)C1` : 6.00 to 7.00

====

Molecular target: αvβ1 (Homo sapiens, UniProt P05556+P06756)
Assay: Solid Phase Integrin αvβ1 Assay
Method: The compounds exemplified in this document were tested for their ability to inhibit αvβ1 and αvβ6 in below described solid phase integrin assays. Solid Phase Integrin αvβ1 Assay 96-well microtiter plates (4 HBX Immulon; Thermo Fisher Scientific, Waltham, MA) were coated with 100 μL/well of 1 μg/mL recombinant TGFb1-LAP in TBS at 4° C., overnight. […] Bound protein was detected using the substrate TMB. […]
pIC50: −log10 of the molar value. Where a name gives a salt, the structure may show the parent alone.
metric_name: pIC50

Documented pIC50 of `C[C@@H]1C[C@@H](C(=O)NC[C@H](C(=O)O)c2ccc3ccccc3c2)CN(CCCc2ccc3c(n2)NCCC3)C1` : 6.00 to 7.00

Documented pIC50 of O=C(NC[C@H](NS(=O)(=O)C1CCCCC1)C(=O)O)[C@@H]1CCCN(CCCc2ccc3c(n2)NCCC3)C1 [Compound 274, hydrochloride] : > 7.00

Documented pIC50 of O=C(CC[C@H](C(=O)O)c1ccccc1)N[C@H]1CCN(CCCCc2ccc3c(n2)NCCC3)C1 [Compound 424] : < 6.00

====

Recorded measurements of IC50, one per entry
Molecular target: αvβ1 (Homo sapiens, UniProt P05556+P06756)
Assay: Solid Phase Integrin αvβ1 Assay
Experimental: The compounds exemplified in this document were tested for their ability to inhibit αvβ1 and αvβ6 in below described solid phase integrin assays. Solid Phase Integrin αvβ1 Assay 96-well microtiter plates (4 HBX Immulon; Thermo Fisher Scientific, Waltham, MA) were coated with 100 μL/well of 1 μg/mL recombinant TGFb1-LAP in TBS at 4° C., overnight. […] Bound protein was detected using the substrate TMB. […]
Structures can show the parent of a compound that is named as a salt.

A selection of reference data follows.
molecule | metric_name | recorded_result
Cc1csc2ncnc(N[C@@H](CNC(=O)[C@@H]3CCCN(CCCc4ccc5c(n4)NCCC5)C3)C(=O)O)c12 [Compound 280] | IC50 | < 100 nM
COc1ccc(C(C)C)c(C(CC(=O)O)NC(=O)[C@@H]2CCCN(CCCc3ccc4c(n3)NCCC4)C2)c1 (some centres unmarked) [Compound 210, hydrochloride] | IC50 | 100 to 1000 nM
O=C(O)C[C@@H](NC(=O)[C@@H]1CCCN(CCCc2ccc3c(n2)NCCC3)C1)c1cccc2c1CCC2 [Compound 211-B] | IC50 | > 1000 nM
C[C@H]1C[C@H](C(=O)NC[C@@H](C(=O)O)c2cccc(-c3ccccc3)c2)CN(CCCc2ccc3c(n2)NCCC3)C1 [Compound 644] | IC50 | 100 to 1000 nM
C[C@@H]1C[C@@H](C(=O)NC[C@H](C(=O)O)c2cccc(-c3ccccc3)c2)CN(CCCc2ccc3c(n2)NCCC3)C1 [Compound 630] | IC50 | > 1000 nM
O=C(N[C@@H](CCO[C@@H]1CCCN(CCCc2ccc3c(n2)NCCC3)C1)C(=O)O)c1c(F)cc(N2CCOC[C@@H]2C(F)(F)F)cc1F [Compound 466] | IC50 | < 100 nM

Documented IC50 of CN1CCc2cc(S(=O)(=O)N[C@H](CNC(=O)[C@@H]3CCCN(CCCc4ccc5c(n4)NCCC5)C3)C(=O)O)ccc21 [Compound 450] : > 1000 nM

Documented IC50 of O=C(NC[C@H](NS(=O)(=O)c1ccccc1)C(=O)O)[C@@H]1CCCN(CCCc2ccc3c(n2)NCCC3)C1 [Compound 272] : < 100 nM

Documented IC50 of O=C(NC[C@H](C(=O)O)c1cc(F)cc(-c2cccc(F)c2)c1)[C@@H]1CCCN(CCCc2ccc3c(n2)NCCC3)C1 [Compound 629] : > 1000 nM

Documented IC50 of O=C(O)[C@H](CCO[C@@H]1CCCN(CCc2ccc3c(n2)NCCC3)C1)Nc1ncnc2ccccc12 [Compound 386] : > 1000 nM

Documented IC50 of CC1(C)CN(c2cc([C@@H](CO[C@@H]3CCCN(CCCc4ccc5c(n4)NCCC5)C3)CC(=O)O)ccc2F)CCO1 [Compound 578] : < 100 nM

Documented IC50 of O=C(NC[C@@H](C(=O)O)c1cccc(C(F)(F)F)c1)[C@@H]1CCCN(CCCc2ccc3c(n2)NCCC3)C1 [Compound 252-A] : < 100 nM

Documented IC50 of O=C(O)C[C@H](CO[C@@H]1CCCN(CCCc2ccc3c(n2)NCCC3)C1)c1cccc([C@H]2CCOC2)c1 [Compound 493] : 100 to 1000 nM

Documented IC50 of O=C(O)C[C@H](CC(=O)N[C@@H]1CCN(CCCCc2ccc3c(n2)NCCC3)C1)c1ccccc1 [Compound 415] : 100 to 1000 nM

====

target: αvβ1 (Homo sapiens, UniProt P05556+P06756); assay: Solid Phase Integrin αvβ1 Assay; type: binding
pIC50: −log10 of the molar value.
metric_name: pIC50

A selection of reference data follows.
molecule | metric_name | recorded_result
O=C(N[C@@H](CNC(=O)[C@@H]1CCCN(CCCc2ccc3c(n2)NCCC3)C1)C(=O)O)c1cccc(Cl)c1 [Compound 373] | pIC50 | > 7.00
O=C(NC[C@H](C(=O)O)c1cccc(Oc2ccccc2)c1)[C@@H]1CCCN(CCCc2ccc3c(n2)NCCC3)C1 [Compound 251-B] | pIC50 | > 7.00
O=C(O)CC(NC(=O)[C@@H]1CCCN(CCCc2ccc3c(n2)NCCC3)C1)c1cccc(O)c1 (stereo partly shown) [Compound 377] | pIC50 | > 7.00
CN1CCN(c2cccc([C@H](CC(=O)O)NC(=O)[C@@H]3CCCN(CCCc4ccc5c(n4)NCCC5)C3)c2)CC1 [Compound 228] | pIC50 | > 7.00
O=C(N[C@@H](CNC(=O)[C@@H]1CCCN(CCCc2ccc3c(n2)NCCC3)C1)C(=O)O)c1ccc(Cl)c(Cl)c1 [Compound 368] | pIC50 | > 7.00
O=C(O)C[C@H](NC(=O)[C@@H]1CCCN(CCCc2ccc3c(n2)NCCC3)C1)c1cccc(-n2cccc2)c1 [Compound 536] | pIC50 | > 7.00

Proceed to the following item.
Documented pIC50 of O=C(O)C[C@@H](NC(=O)[C@@H]1CCCN(CCCc2ccc3c(n2)NCCC3)C1)c1cc(F)cc(C2CC2)c1 [Compound 347] : > 7.00

====

molecular target: αvβ1 (Homo sapiens, UniProt P05556+P06756); assay: Solid Phase Integrin αvβ1 Assay
pIC50: −log10 of the molar value.
metric_name: pIC50

structure_string | tgt | pIC50
C[C@@H]1CN(c2cccc([C@@H](CNC(=O)[C@@H]3CCCN(CCCc4ccc5c(n4)NCCC5)C3)C(=O)O)c2)C[C@H](C)O1 | αvβ1 (Homo sapiens, UniProt P05556+P06756) | > 7.00

Documented pIC50 of `CC1(C)COCCN1c1cccc([C@H](CC(=O)O)NC(=O)[C@@H]2CCCN(CCCc3ccc4c(n3)NCCC4)C2)c1` : > 7.00

Documented pIC50 of `O=C(NC[C@@H](C(=O)O)c1ccc2c(c1)CCCC2)[C@@H]1CCCN(CCCc2ccc3c(n2)NCCC3)C1` : > 7.00

Documented pIC50 of `O=C(O)C[C@@H](CO[C@@H]1CCCN(CCCc2ccc3c(n2)NCCC3)C1)c1cccc(N2C[C@@H]3CC[C@H]2CO3)c1` : 6.00 to 7.00

Documented pIC50 of `O=C(NC[C@@H](C(=O)O)c1cccc(-c2ccccc2)c1)[C@@H]1CCCN(CCCc2ccc3c(n2)NCCC3)C1` : 6.00 to 7.00

Documented pIC50 of `O=C(O)[C@](O)(CO[C@@H]1CCCN(CCCCc2ccc3c(n2)NCCC3)C1)c1ccccc1` : < 6.00

Documented pIC50 of `O=C(O)[C@@H](CCO[C@@H]1CCCN(CCCCc2ccc3c(n2)NCCC3)C1)Nc1ncnc2ccccc12` : 6.00 to 7.00
